pKd for assorted binders
# ASSAY SYSTEM: T1, chimeric human BCL-2 (residues 1-50 and 92-207, residues 35-50 replaced with residues 33-48 of BCL-XL) (human, UniProt P10415 1-34; Q07817-1 33-48; P10415 92-207, biotin (biotinylated for SPR; site not stated))
# T1 construct: BCL-2, human, residues 1-34 of the chimera (internal loop 51-91 removed; residues 35-50 replaced with residues 33-48 of BCL-XL); BCL-XL, human, residues 33-48, in place of BCL-2 residues 35-50; BCL-2, human, residues 92-207; Biotinylated for SPR; used as such for crystals and fluorescence polarisation; also called BCL-2 WT; source: E. coli BL21 (DE3), purified (Ni-NTA, Superdex 75, RESOURCE Q, …)
# T1 chain (looked up): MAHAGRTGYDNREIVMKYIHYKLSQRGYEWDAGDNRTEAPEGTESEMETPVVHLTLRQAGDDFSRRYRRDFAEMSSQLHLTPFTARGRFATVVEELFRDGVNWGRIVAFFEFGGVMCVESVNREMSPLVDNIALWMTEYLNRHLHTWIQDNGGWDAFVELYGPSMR
# EXPERIMENT: SPR; Biacore T200; biotinylated proteins immobilised on a CAP sensor chip; peptides flowed in multiple cycles (25-12800 nM, depending on the peptides) at 30 uL/min; 10 mM PBS, 50 uM EDTA, 0.05% Tween-20, 25 °C; affinity fitting, 1:1 binding model
# DETAILS: both partners purified
Positions of bridges follow the written chain, without caps; N, C: chain ends. No end group written: not given here. cADT = 2-aryl-4,5-dihydrothiazole (ADT) linker
# pKd = -log10(concentration in molar units)

# BINDER, pKd
records = [
    ("CPIRYPWDEFC (linker 1-11 via cADT (inferred), cp5 is cp2 with E6 substituted by P6; source: synthetic peptide) [cp5]", 7.10),
    ("CPIRYGWDEFC (linker 1-11 via cADT (inferred), cp4 is cp2 with E6 substituted by G6; source: synthetic peptide) [cp4]", 7.10),
    ("CPIRYPWDVEC (linker 1-11 via cADT (inferred), cyclic peptide from the second phage library CPXRYXWDXXC screened against BCL-XL; they agree with P6, V9 and E10 named in the text) [cp3]", 6.62),
]

Now look at this entry.
**Q:** Dear colleague, I am looking for the recorded pKd of the following binder: CPIRYEWDEFC (linker 1-11 via cADT (inferred), cyclic peptide from the second phage library CPXRYXWDXXC screened against BCL-2; they agree with I3, E6, E9 and F10 named in the text) [cp2]
**A:** 6.70

Taken from paper PMC10874388.
